System: NCI-H460
Assay: relative viability (nuclei count vs DMSO), 5 days (fraction); higher = more cells survive
Details: first compound 0.01581 µM
Output fulfilled for records whose relative viability is lower than 0.4, not fulfilled for records at or above 0.4.

Before answering, review these 4 worked examples.
Nc1ccn([C@@H]2O[C@H](CO)[C@@H](O)[C@@H]2O)c(=O)n1 [Cytarabine] + CS(=O)(=O)N1CCN(Cc2cc3nc(-c4cccc5[nH]ncc45)nc(N4CCOCC4)c3s2)CC1 [Pictilisib] (partner 1 µM) = fulfilled
Nc1ccn([C@@H]2O[C@H](CO)[C@@H](O)[C@@H]2O)c(=O)n1 [Cytarabine] + O=C(c1cc(Cc2n[nH]c(=O)c3ccccc23)ccc1F)N1CCN(C(=O)C2CC2)CC1 [Olaparib] (partner 8 µM) = fulfilled
COc1cc2nccc(Oc3ccc(NC(=O)Nc4cc(C)on4)c(Cl)c3)c2cc1OC [Tivozanib] + CS(=O)(=O)N1CCN(Cc2cc3nc(-c4cccc5[nH]ncc45)nc(N4CCOCC4)c3s2)CC1 [Pictilisib] (partner 1 µM) = fulfilled
COc1cc2nccc(Oc3ccc(NC(=O)Nc4cc(C)on4)c(Cl)c3)c2cc1OC [Tivozanib] + CC(=O)Nc1cccc(-n2c(=O)n(C3CC3)c(=O)c3c(Nc4ccc(I)cc4F)n(C)c(=O)c(C)c32)c1 [Trametinib] (partner 0.02 µM) = fulfilled

Now take the following molecule into account.
Task: Dear colleague, could you confirm whether relative viability of COc1cc2nccc(Oc3ccc(NC(=O)Nc4cc(C)on4)c(Cl)c3)c2cc1OC [Tivozanib] + O=C(c1cc(Cc2n[nH]c(=O)c3ccccc23)ccc1F)N1CCN(C(=O)C2CC2)CC1 [Olaparib] (partner 8 µM) falls below 0.4? Thanks.
Output: not fulfilled

###

Tested on: PC-3 [JPC-3]
Assay: relative viability (nuclei count vs DMSO), 5 days (fraction); higher = more cells survive
Settings: first compound 2.53 µM
Property: relative viability
Lab note: record the figure alone, no unit after it.

# annotated cases, reported relative viability shown
O=c1[nH]c2ccccc2n1C1CCN(CCCC(c2ccc(F)cc2)c2ccc(F)cc2)CC1 [Pimozide] + COc1cc2c(Oc3ccc(NC(=O)C4(C(=O)Nc5ccc(F)cc5)CC4)cc3F)ccnc2cc1OCCCN1CCOCC1 [Foretinib] (partner 0.25 µM) = 0.931
Cc1cnc(-c2cnc(NCCNc3ccc(C#N)cn3)nc2-c2ccc(Cl)cc2Cl)[nH]1 + COc1cccc2cc(-c3nc([C@H]4CC[C@H](C(=O)O)CC4)n4ncnc(N)c34)[nH]c12 [OSI-027] (partner 0.5 µM) = 0.742

Task: Query: relative viability; subject: O=c1[nH]c2ccccc2n1C1CCN(CCCC(c2ccc(F)cc2)c2ccc(F)cc2)CC1 [Pimozide] + NC(=O)Nc1cc(-c2cccc(F)c2)sc1C(=O)N[C@H]1CCCNC1 [AZD7762] (partner 0.2 µM)
Output: 0.832

Task: Query: relative viability; subject: O=c1[nH]c2ccccc2n1C1CCN(CCCC(c2ccc(F)cc2)c2ccc(F)cc2)CC1 [Pimozide] + COc1cccc2cc(-c3nc([C@H]4CC[C@H](C(=O)O)CC4)n4ncnc(N)c34)[nH]c12 [OSI-027] (partner 0.5 µM)
Output: 0.746

###

Reported relative viability values are given for each entry in this list.
Tested on: BEN
Assay: relative viability (nuclei count vs DMSO), 5 days (fraction); higher = more cells survive
Conditions: first compound 0.1581 µM
Lab note: record the figure alone, no unit after it.

Task: For BEN, provide relative viability of COc1cc2nccc(Oc3ccc(NC(=O)Nc4cc(C)on4)c(Cl)c3)c2cc1OC [Tivozanib] + O=C(CCCCCCC(=O)Nc1ccccc1)NO [Vorinostat] (partner 1 µM) please.
Output: 0.527

Task: For BEN, provide relative viability of Nc1ccn([C@@H]2O[C@H](CO)[C@@H](O)[C@@H]2O)c(=O)n1 [Cytarabine] + Nc1ncn([C@H]2C[C@H](O)[C@@H](CO)O2)c(=O)n1 [Decitabine] (partner 2 µM) please.
Output: 0.345

Task: For BEN, provide relative viability of COc1cc2nccc(Oc3ccc(NC(=O)Nc4cc(C)on4)c(Cl)c3)c2cc1OC [Tivozanib] + Cc1nc(Nc2ncc(C(=O)Nc3c(C)cccc3Cl)s2)cc(N2CCN(CCO)CC2)n1 [Dasatinib] (partner 0.075 µM) please.
Output: 0.225

###

Test system: NCI-H1395
Experiment: relative viability (nuclei count vs DMSO), 5 days (fraction); higher = more cells survive
Details: first compound 15.81 µM
Output label 1 for records whose relative viability is lower than 0.8, label 0 for records at or above 0.8.

O=C(O)CCCCC(CCSCc1ccccc1)SCc1ccccc1 (stereo not given) [CPI-613] + Cc1cc(Nc2cc(N3CCN(C)CC3)nc(Sc3ccc(NC(=O)C4CC4)cc3)n2)n[nH]1 [Tozasertib] (partner 0.1 µM) = label 1

Task: Dear colleague, could you confirm whether relative viability of O=C(O)CCCCC(CCSCc1ccccc1)SCc1ccccc1 (stereo not given) [CPI-613] + Cc1nc(NC(=O)N2CCC[C@H]2C(N)=O)sc1-c1ccnc(C(C)(C)C(F)(F)F)c1 [Alpelisib] (partner 2 µM) falls below 0.8? Thanks.
Output: label 0

Task: Dear colleague, could you confirm whether relative viability of O=C(O)CCCCC(CCSCc1ccccc1)SCc1ccccc1 (stereo not given) [CPI-613] + NC(=O)Nc1cc(-c2cccc(F)c2)sc1C(=O)N[C@H]1CCCNC1 [AZD7762] (partner 0.2 µM) falls below 0.8? Thanks.
Output: label 1

Task: Dear colleague, could you confirm whether relative viability of O=C(O)CCCCC(CCSCc1ccccc1)SCc1ccccc1 (stereo not given) [CPI-613] + N=C(N)NC(=N)NCCc1ccccc1 [Phenformin] (partner 250 µM) falls below 0.8? Thanks.
Output: label 1

###

System: SW 1573
Assay: relative viability (nuclei count vs DMSO), 5 days (fraction); higher = more cells survive
Conditions: first compound 158.11 µM
Property: relative viability
Lab note: record the figure alone, no unit after it.

# annotated cases, reported relative viability shown
O=C(O)CCCCC(CCSCc1ccccc1)SCc1ccccc1 (stereo not given) [CPI-613] + CCNC(=O)c1noc(-c2cc(C(C)C)c(O)cc2O)c1-c1ccc(CN2CCOCC2)cc1 [Luminespib] (partner 0.01 µM) = 0.0967
O=C(O)CCCCC(CCSCc1ccccc1)SCc1ccccc1 (stereo not given) [CPI-613] + O=C(CCCCCCC(=O)Nc1ccccc1)NO [Vorinostat] (partner 1 µM) = 0.165
O=C(O)CCCCC(CCSCc1ccccc1)SCc1ccccc1 (stereo not given) [CPI-613] + COc1cccc2cc(-c3nc([C@H]4CC[C@H](C(=O)O)CC4)n4ncnc(N)c34)[nH]c12 [OSI-027] (partner 0.5 µM) = 0.0962
O=C(O)CCCCC(CCSCc1ccccc1)SCc1ccccc1 (stereo not given) [CPI-613] + CC1(C)CCC(c2ccc(Cl)cc2)=C(CN2CCN(c3ccc(C(=O)NS(=O)(=O)c4ccc(N[C@H](CCN5CCOCC5)CSc5ccccc5)c(S(=O)(=O)C(F)(F)F)c4)cc3)CC2)C1 [Navitoclax] (partner 0.5 µM) = 0.819

Turning now to a further compound:
Task: Query: relative viability; subject: O=C(O)CCCCC(CCSCc1ccccc1)SCc1ccccc1 (stereo not given) [CPI-613] + CC(C)C[C@H](NC(=O)[C@H](Cc1ccccc1)NC(=O)c1cnccn1)B(O)O [Bortezomib] (partner 0.002 µM)
Output: 0.884

###

Tested on: NCI-H2023
Test: relative viability (nuclei count vs DMSO), 5 days (fraction); higher = more cells survive
Conditions: first compound 0.8 µM
Output class 1 for records whose relative viability is lower than 0.4, class 0 for records at or above 0.4.

Before answering, review these 4 worked examples.
O=c1[nH]c2ccccc2n1C1CCN(CCCC(c2ccc(F)cc2)c2ccc(F)cc2)CC1 [Pimozide] + CS(=O)(=O)CCNCc1ccc(-c2ccc3ncnc(Nc4ccc(OCc5cccc(F)c5)c(Cl)c4)c3c2)o1 [Lapatinib] (partner 2 µM) = class 0
Cc1cnc(-c2cnc(NCCNc3ccc(C#N)cn3)nc2-c2ccc(Cl)cc2Cl)[nH]1 + O=C(c1cc(Cc2n[nH]c(=O)c3ccccc23)ccc1F)N1CCN(C(=O)C2CC2)CC1 [Olaparib] (partner 8 µM) = class 0
Cc1cnc(-c2cnc(NCCNc3ccc(C#N)cn3)nc2-c2ccc(Cl)cc2Cl)[nH]1 + Nc1ncn([C@H]2C[C@H](O)[C@@H](CO)O2)c(=O)n1 [Decitabine] (partner 2 µM) = class 1
O=c1[nH]c2ccccc2n1C1CCN(CCCC(c2ccc(F)cc2)c2ccc(F)cc2)CC1 [Pimozide] + CCNC(=O)c1noc(-c2cc(C(C)C)c(O)cc2O)c1-c1ccc(CN2CCOCC2)cc1 [Luminespib] (partner 0.01 µM) = class 0

Task: Dear colleague, could you confirm whether relative viability of O=c1[nH]c2ccccc2n1C1CCN(CCCC(c2ccc(F)cc2)c2ccc(F)cc2)CC1 [Pimozide] + O=C(CCCCCCC(=O)Nc1ccccc1)NO [Vorinostat] (partner 1 µM) falls below 0.4? Thanks.
Output: class 1

Task: Dear colleague, could you confirm whether relative viability of Cc1cnc(-c2cnc(NCCNc3ccc(C#N)cn3)nc2-c2ccc(Cl)cc2Cl)[nH]1 + C[C@]1(O)C[C@@H](c2nc(-c3ccc4ccc(-c5ccccc5)nc4c3)c3c(N)nccn32)C1 [Linsitinib] (partner 1 µM) falls below 0.4? Thanks.
Output: class 0

Task: Dear colleague, could you confirm whether relative viability of O=c1[nH]c2ccccc2n1C1CCN(CCCC(c2ccc(F)cc2)c2ccc(F)cc2)CC1 [Pimozide] + Nc1nc2[nH]cc(CCc3ccc(C(=O)N[C@@H](CCC(=O)O)C(=O)O)cc3)c2c(=O)[nH]1 [Pemetrexed] (partner 0.2 µM) falls below 0.4? Thanks.
Output: class 1
